# System: juvenile rainbow trout (Oncorhynchus mykiss)
# assayMethodText: Bioconcentration (BCF) experiment based on OECD 305, aqueous exposure to surfactant mixtures
# Format: in vivo
# conditionLabel: MIX1 vs MIX1pH
hey, just use Condition met if measured factor by which BCF is lower at pH 6.2 than at pH 7.6 is less than 10, otherwise Condition not met

Solved entries:
lineNotation	subjectOfTest	classification
CCCCCCCCCCCCCN(C)C	juvenile rainbow trout (Oncorhynchus mykiss)	Condition met
CCCCCCCCCN	juvenile rainbow trout (Oncorhynchus mykiss)	Condition not met
CCCCCCCCCCCCCCCCN	juvenile rainbow trout (Oncorhynchus mykiss)	Condition met

IN: Hello, is factor by which BCF is lower at pH 6.2 than at pH 7.6 of the following molecule strictly smaller than 10? `CCCCCCCCCCCCN`
OUT: Condition not met

IN: Note, next up: `CCCCCCCCCCN(C)C`
OUT: Condition not met
